Target: Hexose transporter 1 (Plasmodium falciparum) (UniProt O97467)
Experiment: ST_JUDE_LEISH: Cytotoxicity at 2uM final concentration against transgenic Leishmania Mexicana promastigotes LmPfHT that are glucose transport deficient and complemented with the Plasmodium falciparum hexose transporter. Activity is measured by DNA content using SYBR green in vitro
Format: functional
The entries below come with measured inhibition values attached.
Please give a number only; it is taken to be in %.

COMPOUND: CCOC(=O)c1cccc(NC(=N)Nc2nc(C)cc(NCCc3ccccc3)n2)c1
TEST_SYSTEM: Hexose transporter 1 (Plasmodium falciparum) (UniProt O97467)
READOUT_TYPE: inhibition
EXPERIMENTAL_RESULT: 7.16

Provide value of inhibition for this record tested with Hexose transporter 1 (Plasmodium falciparum) (UniProt O97467): `CCCCN(CCCC)C(=N)c1cccc2c1CCCC2`
3.35

Again, but for `Cc1nnc2c(NC(=O)NC3CCCC3)cc3cc(-c4ccc(CN5CCCCC5)cc4)ccc3n12`
1.94

Again, but for `Cc1cc(N/N=C/c2cccc([N+](=O)[O-])c2)c2cc(F)ccc2n1`
1.82

====

Molecular target: Hexose transporter 1 (Plasmodium falciparum) (UniProt O97467)
Experiment: ST_JUDE_LEISH: Cytotoxicity at 2uM final concentration against transgenic Leishmania Mexicana promastigotes LmPfHT that are glucose transport deficient and complemented with the Plasmodium falciparum hexose transporter. Activity is measured by DNA content using SYBR green in vitro
Format: functional
READOUT_TYPE: inhibition (%)
Please give a number only; it is taken to be in %.

Worked examples follow.
MOLECULE: FC(F)(F)Oc1cccc(CNc2noc(-c3sccc3Br)n2)c1
inhibition [%]: 2.93
//
MOLECULE: CC(C)NCC(O)COc1ccc(Cc2ccc(OCC(O)CNC(C)C)cc2)cc1 (stereo not given)
inhibition [%]: 0.19
//
MOLECULE: CCOc1ccc2nc(NC(=O)c3csnn3)sc2c1
inhibition [%]: 3.55
//
MOLECULE: OC1CCCN(Cc2cccc(-c3ccc(-c4nc5cc(C(F)(F)F)ccc5[nH]4)cc3)c2)C1 (stereo not given)
inhibition [%]: 2.8
//
MOLECULE: O=C(Nc1cccc(Cl)c1)N[C@H]1CCN(Cc2ccc(OCCCN3CCCCC3)cc2)C1
inhibition [%]: 9.12
//
MOLECULE: COc1ccccc1NC(=O)Nc1ccc(-c2ccc(-c3nc4cc(C(F)(F)F)ccc4[nH]3)cc2)cc1
inhibition [%]: 4.25
//
MOLECULE: CC(C)(CN1CCCC1)CN(Cc1ccc(-c2ccc(C(F)(F)F)cc2)cc1)C(=O)Cn1c(CCc2cccc(F)c2F)nc(=O)c2ccccc21
inhibition [%]: 8.05
//
MOLECULE: O=c1cc(NCCCNCc2cc(Cl)c(Cl)cc2Cl)[nH]c2ccccc12
inhibition [%]: -0.04

Value lookup for inhibition; key = `Cc1onc(-c2ccccc2Cl)c1C(=O)Nc1cc(Cl)c(Cl)cc1Cl`
5.64

Again, but for `COc1cc(CCNC(=O)Cc2ccc3ccccc3c2)ccc1OCc1ccccc1`
1.88

Again, but for `CS(=O)(=O)c1cccc(-c2cnc3[nH]cc(-c4cccc(CCN)c4)c3c2)c1`
3.48

Again, but for `N=C(N)Nc1ccc(NC(=O)Nc2ccc(NC(=N)N)cc2)cc1`
0.77

Again, but for `CCCN1CCN(CCCCNc2c3ccccc3nc3ccccc23)CC1`
73.8

====

The entries below come with measured inhibition values attached.
Target: Hexose transporter 1 (Plasmodium falciparum) (UniProt O97467)
Assay: ST_JUDE_LEISH: Cytotoxicity at 2uM final concentration against transgenic Leishmania Mexicana promastigotes LmPfHT that are glucose transport deficient and complemented with the Plasmodium falciparum hexose transporter. Activity is measured by DNA content using SYBR green in vitro
Assay type: functional
Please give a number only; it is taken to be in %.

COMPOUND: CCNC(C)(C)CN(Cc1ccc(-c2ccc(C(F)(F)F)cc2)cc1)C(=O)Cn1c(CCc2cccc(F)c2F)nc(=O)c2ccccc21
TEST_SYSTEM: Hexose transporter 1 (Plasmodium falciparum) (UniProt O97467)
UNIT_SPEC: %
inhibition: 3.3

Value lookup for inhibition; key = `Cc1c(Br)cc2nc(-c3ccc(C(=O)NC4CCN(Cc5ccccc5)CC4)cc3)[nH]c2c1C`
1.85

Again, but for Cc1cc(CN2CCCC(OC(c3ccc(F)cc3)c3ccc(F)cc3)C2)ccc1O (centres undefined)
4.88

Again, but for `O=C(NCCN1CCC(NC(=O)c2ccc(-c3ccccn3)s2)CC1)c1ccc(Cl)c(Cl)c1`
4.02

Again, but for CCOc1ccc(C(C)NC(=O)c2cc(Cl)ccc2OC)cc1OCC (centres undefined)
0.16

Again, but for `CCNc1c2ccc(Cl)cc2nc2ccc(OC)cc12`
4.37

Again, but for COc1cc(/C=C/C(=O)NCC(CCNc2cc(=O)c3ccccc3[nH]2)NCc2cc(Br)cc(Br)c2)cc(OC)c1 (centres undefined)
3.71

Again, but for `Cc1[nH]c(C)c(-c2ccc(-c3cccc(Cl)c3)nc2)c(=O)c1Br`
1.07

Again, but for `CC(C)(C)N1CCC(N(Cc2ccc(-c3ccc(C(F)(F)F)cc3)cc2)C(=O)Cn2c(CCc3cccc(F)c3F)cc(=O)c3ccccc32)CC1`
0.14

====

Molecular target: Solute carrier family 2, facilitated glucose transporter member 1 (Homo sapiens)
Test: ST_JUDE_LEISH: Cytotoxicity at 2uM final concentration against transgenic Leishmania Mexicana promastigotes LmGLUT1 that are glucose transport deficient and complemented with the human glucose transporter GLUT1. Activity is measured by DNA content using SYBR green in vitro
Assay type: functional
Mark Satisfied for reported inhibition of 4% or greater; mark Not satisfied for anything smaller.

Example entries begin here.
MOLECULE: CCC(CC)(Cc1ccccc1)NC(=O)[C@H](Cc1ccc(OC)c(OC)c1)Nc1ccc(C#N)c2ccccc12
LABEL_VALUE: Not satisfied

MOLECULE: COc1ccc2nccc([C@@H](O)CN3CCC(NC(=O)c4ccc(C5(C(F)(F)F)N=N5)cc4)CC3)c2c1
LABEL_VALUE: Satisfied

MOLECULE: CCc1cccc(OCC2CCCN(c3ccc(C(=O)NC4CC4)cn3)C2)c1 (stereo not given)
LABEL_VALUE: Satisfied

Consider the additional molecule presented here.
Please check the record `CC(C)(C)Nc1cc(C2CC2)nc(-c2ccccn2)n1` and state if its inhibition is at or above 4%.
Not satisfied

====

The entries below come with measured inhibition values attached.
Target: Solute carrier family 2, facilitated glucose transporter member 1 (Homo sapiens)
Assay: ST_JUDE_LEISH: Cytotoxicity at 2uM final concentration against transgenic Leishmania Mexicana promastigotes LmGLUT1 that are glucose transport deficient and complemented with the human glucose transporter GLUT1. Activity is measured by DNA content using SYBR green in vitro
Format: functional
Please give a number only; it is taken to be in %.

RECORD_SMILES: COc1ccccc1C1CCN(CCCCNC(=O)c2ccc(/C=C/c3cc(Cl)cc(Cl)c3)cc2)CC1
inhibition [%]: 2.68
--
RECORD_SMILES: CC(C)c1ccc(NC(=O)c2cccc(CN3CCCN(Cc4cccc(O)c4)CC3)c2)cc1
inhibition [%]: 15.4

Value lookup for inhibition; key = `COc1ccc2nccc([C@@H](O)CN3CCC(NC(=O)c4ccc5nc(-n6cccc6)sc5c4)CC3)c2c1`
6.02

Again, but for `CC(=O)N(C)c1ccc(C(=O)Nc2cccc(-c3cccc(-c4nc5cc(C(F)(F)F)ccc5[nH]4)c3)c2)cc1`
8.18

====

Target: Hexose transporter 1 (Plasmodium falciparum)
Assay: ST_JUDE_LEISH: Cytotoxicity at 2uM final concentration against transgenic Leishmania Mexicana promastigotes LmPfHT that are glucose transport deficient and complemented with the Plasmodium falciparum hexose transporter. Activity is measured by DNA content using SYBR green in vitro
Assay type: functional
READOUT_TYPE: inhibition (%)
Please give a number only; it is taken to be in %.

RECORD_SMILES: COc1ccc(Nc2nccc(NCCNC(=O)Nc3ccccc3F)n2)cc1
UNIT_SPEC: %
inhibition: 3.75

Value lookup for inhibition; key = `Fc1ccc2c(NN=CC=Cc3ccccc3)ccnc2c1`
9.84

Again, but for `O=c1c2ccc(Sc3ccccn3)cc2n(-c2ccccc2)c2cc(Sc3ccccn3)ccc12`
0.77

Again, but for `CN(C)CCN(C)Cc1ccc(-c2ccc(NC(=O)c3ccc(Cl)cc3)cc2)cc1`
11.3

Again, but for `CC1(C)S(=O)(=O)CC(O)CS1(=O)=O`
3.02

Again, but for `O=C(COc1ccc(C(=O)c2ccccc2)cc1)Nc1nccs1`
0.43

====

Biological target: Hexose transporter 1 (Plasmodium falciparum) (UniProt O97467)
Assay: ST_JUDE_LEISH: Cytotoxicity at 2uM final concentration against transgenic Leishmania Mexicana promastigotes LmPfHT that are glucose transport deficient and complemented with the Plasmodium falciparum hexose transporter. Activity is measured by DNA content using SYBR green in vitro
Format: functional
The entries below come with measured inhibition values attached.

Worked examples follow.
COMPOUND: O=C(NC1CC1c1ccccc1)N(CCCn1ccnc1)Cc1csc(-c2ccc(CNCc3ccccc3)cc2)n1 (stereo not given)
EXPERIMENTAL_RESULT: 1%
--
COMPOUND: CCc1cn2c3c(cc(C(=O)N[C@@H](Cc4ccccc4)[C@H](O)CNC4CCCC4)cc13)N(C)S(=O)(=O)CC2
EXPERIMENTAL_RESULT: 9.26%
--
COMPOUND: O=C(/C=C/c1ccc(Cl)c(Cl)c1)NCCCCCN1CCC(NC(=O)NC2CCCCC2)CC1
EXPERIMENTAL_RESULT: 0.4%
--
COMPOUND: CC(C)(Oc1c(C2CCN(CCCCNC(=O)c3ccc(-c4ccc(Cl)cc4)cc3)CC2)ccc2c1CCCC2)C(N)=O
EXPERIMENTAL_RESULT: -0.94%
--
COMPOUND: O=C(Nc1ccc(N2CCN(C(=O)/C=C/c3ccccc3)CC2)c(Cl)c1)c1ccc([N+](=O)[O-])o1
EXPERIMENTAL_RESULT: 68%

Let us examine a further case.
Value lookup for inhibition; key = `N#Cc1ccc(CN2CCCN(Cc3cccc(NC(=O)c4cc5ccccc5s4)c3)CC2)cc1`
-0.58%
